molecular target: human DGKζ (Homo sapiens); construct: TVMV protease cleavage site (C); Hexa-His (C); test: In vitro DGK inhibition assay, DGKζ liposome (LIPGLO) assay; settings: read-out: Enzyme Inhibition DGKzeta IC50
Sequence (Q13574 with tags, fused parts or gaps isoform Q13574-4): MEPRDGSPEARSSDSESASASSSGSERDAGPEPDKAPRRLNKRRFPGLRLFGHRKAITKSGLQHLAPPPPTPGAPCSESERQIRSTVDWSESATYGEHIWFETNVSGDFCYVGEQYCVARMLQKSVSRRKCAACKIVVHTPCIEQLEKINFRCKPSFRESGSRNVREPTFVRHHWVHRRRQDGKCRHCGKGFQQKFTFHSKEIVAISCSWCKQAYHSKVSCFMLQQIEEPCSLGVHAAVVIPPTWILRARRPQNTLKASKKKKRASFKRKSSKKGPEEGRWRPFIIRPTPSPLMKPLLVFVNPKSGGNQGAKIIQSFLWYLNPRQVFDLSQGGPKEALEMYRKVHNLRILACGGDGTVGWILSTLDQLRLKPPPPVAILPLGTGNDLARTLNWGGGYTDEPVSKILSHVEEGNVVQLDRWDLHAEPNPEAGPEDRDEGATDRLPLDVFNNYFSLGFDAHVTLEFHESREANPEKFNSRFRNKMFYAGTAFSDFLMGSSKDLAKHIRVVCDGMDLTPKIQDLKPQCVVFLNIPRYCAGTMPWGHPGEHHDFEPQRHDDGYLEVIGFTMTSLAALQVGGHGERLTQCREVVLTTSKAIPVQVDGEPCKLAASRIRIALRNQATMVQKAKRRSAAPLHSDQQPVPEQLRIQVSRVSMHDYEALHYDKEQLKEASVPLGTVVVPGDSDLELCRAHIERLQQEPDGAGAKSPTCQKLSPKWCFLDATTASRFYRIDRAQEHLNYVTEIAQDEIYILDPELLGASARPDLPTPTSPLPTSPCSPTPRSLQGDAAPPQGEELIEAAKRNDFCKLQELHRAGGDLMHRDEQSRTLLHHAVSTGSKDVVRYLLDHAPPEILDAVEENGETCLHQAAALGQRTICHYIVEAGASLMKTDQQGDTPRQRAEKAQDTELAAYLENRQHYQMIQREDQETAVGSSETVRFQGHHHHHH
pIC50: −log10 of the molar value.
Measurement Kind: pIC50

Molecule	Measurement Kind	Censoring Operator	Experimental Result
Cn1c(=O)cc(N(CC2CC2)c2ccc(C3CC3)c(-c3ccc(N4CCOCC4)cc3)c2)c2nc(C#N)ccc21	pIC50	<	4.42
CN(C)c1cccc(-c2cccc(N(CC3CC3)c3cc(=O)n(C)c4ccc(C#N)nc34)c2)c1	pIC50	=	5.43
COc1ccc(-c2cccc(N(C)c3nc(=O)n(C)c4ccc(C#N)nc34)c2)cc1	pIC50	<	4.42
COc1ccc(N(CC2CC2)c2cc(=O)n(C)c3ccc(C#N)nc23)cc1	pIC50	=	6.10
CN(C)c1cccc(-c2ccc(N(CC3CC3)c3cc(=O)n(C)c4ccc(C#N)nc34)cc2)c1	pIC50	=	6.04
COc1ccc2c(n1)c(N(C)C1CCCCC1)c(C#N)c(=O)n2C	pIC50	=	4.08
Cn1c(=O)cc(N(CC2CC2)c2ccc(OC(F)F)cn2)c2nc(C#N)ccc21	pIC50	=	5.92
CN(C)c1ccc(-c2ccc(N(CC3CC3)c3cc(=O)n(C)c4ccc(C#N)nc34)cc2)cc1	pIC50	=	5.70

----------
log10 IC50 reference
target: human DGKζ (Homo sapiens); construct: TVMV protease cleavage site (C); Hexa-His (C); experiment: In vitro DGK inhibition assay, DGKζ liposome (LIPGLO) assay; conditions: read-out: Enzyme Inhibition DGKzeta IC50
Measurement Kind: log10 IC50 (log10 of the value in µM)

Molecule	Experimental System	log10 IC50
Cn1c(=O)cc(N(CC2CC2)c2cccc(-c3ccccc3Cl)c2)c2nc(C#N)ccc21	human DGKζ (Homo sapiens)	0.90
Cn1c(=O)cc(N(CC2CC2)c2ccc3occc3c2)c2nc(C#N)ccc21	human DGKζ (Homo sapiens)	0.43
Cc1ccc2c(n1)c(N(C)C1CCCCC1)c(C#N)c(=O)n2C	human DGKζ (Homo sapiens)	0.43
Cn1c(=O)cc(N(CC2CC2)[C@H]2CC[C@H](c3ccccc3)CC2)c2nc(C#N)ccc21	human DGKζ (Homo sapiens)	1.26
Cc1cc(C2CC2)ccc1N(CC1CC1)c1cc(=O)n(C)c2ccc(C#N)nc12	human DGKζ (Homo sapiens)	1.46
CN(C)c1ccc(N(CC2CC2)c2cc(=O)n(C)c3ccc(C#N)nc23)cc1	human DGKζ (Homo sapiens)	0.38
Cn1c(=O)cc(N(CC2CC2)c2cccc(-c3ccc(CNS(C)(=O)=O)cc3)c2)c2nc(C#N)ccc21	human DGKζ (Homo sapiens)	0.54
Cn1c(=O)c(C#N)c(N(CC2CC2)c2ccc(C3CC3)cc2)c2nc(C#N)ccc21	human DGKζ (Homo sapiens)	0.82
CCN(c1ccc(OC)cc1)c1cc(=O)n(C)c2ccc(C#N)nc12	human DGKζ (Homo sapiens)	0.40
Cn1c(=O)cc(N(CC2CC2)c2ccc(OC(F)F)c(C#N)c2)c2nc(C#N)ccc21	human DGKζ (Homo sapiens)	1.08
C#CCn1c(=O)c(C#N)c(N(C)C2CCCCC2)c2nc(Br)ccc21	human DGKζ (Homo sapiens)	1.08
COc1cccc(-c2ccc(N(CC3CC3)c3cc(=O)n(C)c4ccc(C#N)nc34)cc2)c1	human DGKζ (Homo sapiens)	0.60
Cc1ccc(-c2ccc(N(CC3CC3)c3cc(=O)n(C)c4ccc(C#N)nc34)cc2)cc1	human DGKζ (Homo sapiens)	0.88
Cn1c(=O)cc(N(CC2CC2)c2ccc(C#N)nc2)c2nc(C#N)ccc21	human DGKζ (Homo sapiens)	0.92
COc1ccc(-c2ccc(N(CC3CC3)c3cc(=O)n(C)c4ccc(C#N)nc34)cc2)cc1	human DGKζ (Homo sapiens)	0.30
Cn1c(=O)cc(N(CC2CC2)c2cccc(-c3ccc(C(N)=O)cc3)c2)c2nc(C#N)ccc21	human DGKζ (Homo sapiens)	0.30
COCc1ccccc1N(CC1CC1)c1cc(=O)n(C)c2ccc(C#N)nc12	human DGKζ (Homo sapiens)	1.32
CN(c1nc(=O)n(C)c2ccc(Cl)nc12)C1CCCCC1	human DGKζ (Homo sapiens)	1.86
Cn1c(=O)cc(N(CC2CC2)c2cccc(-c3ccccc3)c2)c2nc(C#N)ccc21	human DGKζ (Homo sapiens)	1.43
Cn1c(=O)cc(N(CC2CC2)c2cccc(-c3ccc(Cl)cc3)c2)c2nc(C#N)ccc21	human DGKζ (Homo sapiens)	1.18
CN(c1cc(=O)n(C)c2ccc(C#N)nc12)C1CCCCC1	human DGKζ (Homo sapiens)	1.08
Cn1c(=O)nc(N(CC2CC2)c2ccc(C3CC3)cc2)c2nc(C#N)ccc21	human DGKζ (Homo sapiens)	-0.82
Cn1c(=O)cc(N(CC2CC2)c2cccc(-c3cccnc3)c2)c2nc(C#N)ccc21	human DGKζ (Homo sapiens)	0.34
Cn1c(=O)cc(N(CC2CC2)c2ccc(OC(F)(F)F)cc2Cl)c2nc(C#N)ccc21	human DGKζ (Homo sapiens)	0.40
COc1ccccc1-c1cccc(N(CC2CC2)c2cc(=O)n(C)c3ccc(C#N)nc23)c1	human DGKζ (Homo sapiens)	0.73
CN(c1ccc(Cl)cc1)c1cc(=O)n(C)c2ccc(C#N)nc12	human DGKζ (Homo sapiens)	1.23
CN(C)c1ccc(-c2cccc(N(CC3CC3)c3cc(=O)n(C)c4ccc(C#N)nc34)c2)cc1	human DGKζ (Homo sapiens)	0.30
Cc1ccc(N(CC2CC2)c2cc(=O)n(C)c3ccc(C#N)nc23)cc1	human DGKζ (Homo sapiens)	0.46
Cc1cc(N(CC2CC2)c2cc(=O)n(C)c3ccc(C#N)nc23)ccc1OC(F)F	human DGKζ (Homo sapiens)	0.67
COc1cccc(-c2cccc(N(CC3CC3)c3cc(=O)n(C)c4ccc(C#N)nc34)c2)c1	human DGKζ (Homo sapiens)	0.79

----------
IC50 reference
molecular target: human DGKα (Homo sapiens); construct: TVMV protease cleavage site (C); Hexa-His (C); assay: In vitro DGK inhibition assay, DGKα liposome (LIPGLO) assay; settings: read-out: Enzyme Inhibition DGKalpha IC50
Sequence (P23743 with tags, fused parts or gaps): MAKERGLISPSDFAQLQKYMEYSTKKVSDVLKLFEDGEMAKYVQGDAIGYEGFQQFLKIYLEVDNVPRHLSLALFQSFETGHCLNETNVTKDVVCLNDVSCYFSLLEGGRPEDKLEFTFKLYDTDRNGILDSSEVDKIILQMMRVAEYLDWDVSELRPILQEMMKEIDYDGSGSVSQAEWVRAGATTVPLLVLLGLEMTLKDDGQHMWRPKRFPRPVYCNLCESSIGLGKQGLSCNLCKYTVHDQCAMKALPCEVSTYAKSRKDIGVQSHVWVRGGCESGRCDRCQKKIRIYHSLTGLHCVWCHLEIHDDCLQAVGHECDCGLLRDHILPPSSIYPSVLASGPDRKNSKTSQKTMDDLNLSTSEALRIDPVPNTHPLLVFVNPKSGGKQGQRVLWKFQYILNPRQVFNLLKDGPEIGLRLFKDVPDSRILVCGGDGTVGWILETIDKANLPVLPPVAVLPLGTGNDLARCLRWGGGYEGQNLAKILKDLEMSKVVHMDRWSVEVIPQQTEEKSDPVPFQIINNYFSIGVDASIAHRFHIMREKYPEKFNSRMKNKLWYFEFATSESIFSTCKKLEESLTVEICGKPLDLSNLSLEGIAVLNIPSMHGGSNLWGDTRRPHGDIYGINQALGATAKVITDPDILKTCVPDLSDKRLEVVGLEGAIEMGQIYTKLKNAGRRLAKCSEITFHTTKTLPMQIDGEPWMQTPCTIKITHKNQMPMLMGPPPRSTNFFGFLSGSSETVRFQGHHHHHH

Molecule	Units Of Measure	Censoring Operator	IC50
Cc1ccccc1N(CC1CC1)c1cc(=O)n(C)c2ccc(C#N)nc12	µM	=	4.8
Cn1c(=O)cc(N(CC2CC2)c2ccc(C3CC3)cc2)c2nc(C#N)ccc21	µM	=	2.7
CN(c1ccc(C(F)(F)F)cc1)c1cc(=O)n(C)c2ccc(C#N)nc12	µM	=	6.1
Cn1c(=O)cc(N(CC2CC2)c2ccc(C3CC3)c(-c3ccc(OCC4CC4)cc3)c2)c2nc(C#N)ccc21	µM	>	38

----------
pIC50 reference
Biological target: human DGKα (Homo sapiens)
Construct: TVMV protease cleavage site (C); Hexa-His (C)
Experiment: In vitro DGK inhibition assay, DGKα liposome (LIPGLO) assay
Settings: read-out: Enzyme Inhibition DGKalpha IC50
Method: The DGKα and DGKζ reactions were performed using either extruded liposome (DGKα and DGKζ LIPGLO assays) or detergent/lipid micelle substrate (DGKα and DGKζ assays). The reactions were carried out in 50 mM MOPS pH 7.5, 100 mM NaCl, 10 mM MgCl2, 1 μM CaCl2, and 1 mM DTT (assay buffer). The reactions using a detergent/lipid micelle substrate also contained 50 mM octyl B-D-glucopyranoside. The lipid substrate concentrations were 11 mM PS and 1 mM DAG for the detergent/lipid micelle reactions. […]
pIC50: −log10 of the molar value.
Measurement Kind: pIC50

Molecule	Experimental Result
CN(C)C(=O)c1ccc(-c2cccc(N(CC3CC3)c3cc(=O)n(C)c4ccc(C#N)nc34)c2)cc1	6.03
Cn1c(=O)cc(N(CC2CC2)c2ccc(OCC(F)(F)F)cc2)c2nc(C#N)ccc21	5.96
COc1cc(-c2ccc(N(CC3CC3)c3cc(=O)n(C)c4ccc(C#N)nc34)cc2)ccn1	4.92
Cc1ccccc1N(C)c1cc(=O)n(C)c2ccc(C#N)nc12	6.02

----------
biological target: DGKzeta (Homo sapiens, UniProt Q13574); test: Translocation DGKzeta; type: cell-based
Sequence (Q13574 whole entry): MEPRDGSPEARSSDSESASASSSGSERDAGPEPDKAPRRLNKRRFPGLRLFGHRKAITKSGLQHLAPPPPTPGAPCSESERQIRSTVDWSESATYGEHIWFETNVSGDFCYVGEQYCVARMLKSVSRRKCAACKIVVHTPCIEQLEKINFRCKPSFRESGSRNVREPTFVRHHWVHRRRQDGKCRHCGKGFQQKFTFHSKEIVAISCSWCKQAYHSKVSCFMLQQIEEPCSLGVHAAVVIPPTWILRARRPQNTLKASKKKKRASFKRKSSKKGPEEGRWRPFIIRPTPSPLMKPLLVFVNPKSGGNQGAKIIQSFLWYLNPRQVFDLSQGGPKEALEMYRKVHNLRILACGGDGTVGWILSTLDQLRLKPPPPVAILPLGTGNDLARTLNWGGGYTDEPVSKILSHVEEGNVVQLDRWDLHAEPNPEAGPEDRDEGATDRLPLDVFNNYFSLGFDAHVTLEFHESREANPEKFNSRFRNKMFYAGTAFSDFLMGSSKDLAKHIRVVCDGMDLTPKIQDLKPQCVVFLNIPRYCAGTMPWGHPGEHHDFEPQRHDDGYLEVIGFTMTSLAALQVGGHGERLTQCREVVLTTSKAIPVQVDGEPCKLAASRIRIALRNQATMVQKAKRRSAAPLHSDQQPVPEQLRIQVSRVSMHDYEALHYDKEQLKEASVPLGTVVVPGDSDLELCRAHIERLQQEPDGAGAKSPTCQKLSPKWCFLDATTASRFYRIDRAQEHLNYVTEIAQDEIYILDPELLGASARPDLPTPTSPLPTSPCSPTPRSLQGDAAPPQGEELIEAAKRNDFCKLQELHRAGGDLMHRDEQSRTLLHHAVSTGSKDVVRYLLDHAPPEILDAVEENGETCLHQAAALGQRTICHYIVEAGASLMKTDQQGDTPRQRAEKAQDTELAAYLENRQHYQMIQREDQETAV
EC50 reference

Molecule	EC50 (nM)
Cn1c(=O)cc(N(CC2CC2)c2ccc(C3CC3)nc2)c2nc(C#N)ccc21	130
Cn1c(=O)cc(N(CC2CC2)c2ccc3occc3c2)c2nc(C#N)ccc21	570
Cn1c(=O)cc(N(CC2CC2)c2ccc(F)nc2)c2nc(C#N)ccc21	1600
Cn1c(=O)cc(N(CC2CC2)c2ccc(C3CC3)c(-c3cccc(F)c3)c2)c2nc(C#N)ccc21	85

----------
target: DGKzeta (Homo sapiens, UniProt Q13574); assay: Translocation DGKzeta
# note: exactly 0.2 µM is not below, so it is 0.0; use 1.0 for EC50 strictly under it

Compound	Experimental System	Classification
CC(=O)N(C)c1ccc(N(CC2CC2)c2cc(=O)n(C)c3ccc(C#N)nc23)cc1 [Example 133]	DGKzeta (Homo sapiens, UniProt Q13574)	0.0
Cn1c(=O)cc(N(CC2CC2)c2ccc(OCC(F)(F)F)cc2)c2nc(C#N)ccc21 [Example 37]	DGKzeta (Homo sapiens, UniProt Q13574)	0.0
Cn1c(=O)cc(N(CC2CC2)c2ccc(C3CC3)c(-c3ccc(Cl)cc3)c2)c2nc(C#N)ccc21 [Example 128]	DGKzeta (Homo sapiens, UniProt Q13574)	1.0
Cn1c(=O)cc(N(CC2CC2)c2ccc(C3CCCCC3)cc2)c2nc(C#N)ccc21 [Example 119]	DGKzeta (Homo sapiens, UniProt Q13574)	1.0
Cn1c(=O)cc(N(CC2CC2)c2ccc(Br)cc2)c2nc(C#N)ccc21 [Example 18]	DGKzeta (Homo sapiens, UniProt Q13574)	0.0
Cc1cc(N(CC2CC2)c2cc(=O)n(C)c3ccc(C#N)nc23)ccc1OC(F)F [Example 117]	DGKzeta (Homo sapiens, UniProt Q13574)	1.0
Cn1c(=O)cc(N(CC2CC2)c2ccc(C3CC3)c(-c3ccc(OCC4CC4)cc3)c2)c2nc(C#N)ccc21 [Example 131]	DGKzeta (Homo sapiens, UniProt Q13574)	1.0
